# Test Description: Flow cytometric analysis of clots, cell viability (annexin V / PI)
# Type: cell-based, human
# Conditions: human
Positions of bridges follow the written chain, without caps; N, C: chain ends. Non-standard residues stand in square brackets, D forms with d. Residues, ends and D or L forms follow the SMILES beside them. hArg = N=C(N)NCCCC[C@H](N)C(=O)O; Mpa = O=C(O)CCS
Assay Endpoint: viability at 24 h (%)
# output: bare number, implied unit %

IN: Hello, please tell me recorded viability at 24 h for this one: N=C(N)NCCCC[C@@H]1NC(=O)CCSSC[C@@H](C(N)=O)NC(=O)[C@@H]2CCCN2C(=O)[C@H](Cc2c[nH]c3ccccc23)NC(=O)[C@H](CC(=O)O)NC(=O)CNC1=O [Eptifibatide, eptifibatide, reference compound] ([Mpa][hArg]GDWPC-NH2; disulfide 1-7)
OUT: 90.6
